Field: % decrease in rate of aggregation. Provide a value for each of the binders that follow.
# assayTarget: α-synuclein (UniProt P37840 1-140); note: test concentration or dose not given here
# assayRemarks: cell-based or functional assay
Non-standard residues stand in square brackets, D forms with d.
Express the result in % but write the number alone.

Prompt: # get_value(readout='% decrease in rate of aggregation', item= Ac-[dH][dH][dV][dI][dV][dA]-NH2 (SMILES CC[C@@H](C)[C@@H](NC(=O)[C@H](NC(=O)[C@@H](Cc1c[nH]cn1)NC(=O)[C@@H](Cc1c[nH]cn1)NC(C)=O)C(C)C)C(=O)N[C@@H](C(=O)N[C@H](C)C(N)=O)C(C)C) [ZP-0158] )
Completion: 18.4

Prompt: Please do the same for Ac-[dQ][dY][dS][dP][dL][dI]-NH2 (SMILES CC[C@@H](C)[C@@H](NC(=O)[C@@H](CC(C)C)NC(=O)[C@H]1CCCN1C(=O)[C@@H](CO)NC(=O)[C@@H](Cc1ccc(O)cc1)NC(=O)[C@@H](CCC(N)=O)NC(C)=O)C(N)=O) [ZP-0205] as well.
Completion: -11.9

Prompt: Same for H-[dQ][dY][dS][dV][dL][dI]-NH2 (SMILES CC[C@@H](C)[C@@H](NC(=O)[C@@H](CC(C)C)NC(=O)[C@H](NC(=O)[C@@H](CO)NC(=O)[C@@H](Cc1ccc(O)cc1)NC(=O)[C@H](N)CCC(N)=O)C(C)C)C(N)=O) [ZP-0215]
Completion: 17.5
